# Tested on: Staphylococcus epidermidis ATCC 12228
# Type: cell-based
# runConditions: ATCC 12228, 18 h
Where no end group is shown, it is not given here.
Each entry below carries its reported MBC.

WVKKVARKVVKIGRKVAR-NH2 [A11] : 31.25 µg/mL
GVKKVARKVVKIGRKVAR-NH2 [A9] : > 250 µg/mL
GVKKVAHKVVKIGRKVAWGAVSGV-NH2 [A4] : 250 (250) µg/ml
GNPKVAHCASQIGRSTAWGAVSGA-NH2 [A0, acidocin J1132β, reference compound] : > 250 (> 250) µg/ml

The measured MBC associated with GVKKVAHKVVKIGRKVAW-NH2 [A6] reads > 250 (> 250) µg/ml
